- Tested on: greenhouse red spider mite (Tetranychus urticae)
- Procedure Summary: Tetranychus urticae spray test, OP-resistant (TETRUR), bean leaf disks
- Format: in vivo
- Settings: Tetranychus urticae, foliar, 144 h, application rate 500 g/ha, after 6 days; read-out: efficacy (spider mites killed)
Quantity: pest or weed control at 500 g/ha (%)

compound="N/C(=N\\c1cc(SCC(F)(F)F)c(Cl)cc1Cl)C1CCCCC1 [Ia-156]" endpoint_result=100
compound="CN/C(=N/c1cc([S+]([O-])CC(F)(F)F)c(C)cc1F)c1ccccc1C(F)(F)F (stereo not drawn) [Ib-148]" endpoint_result=100
compound="Cc1cc(F)c(/N=C2\\CCCN2CC(F)F)cc1[S+]([O-])CC(F)(F)F (stereo not drawn) [Ib-33]" endpoint_result=100
compound="CN/C(=N\\c1cc(SCC(F)(F)F)c(C)cc1Cl)c1cccnc1 [Ia-64]" endpoint_result=100
compound="Cc1cc(F)c(/N=C(\\N)c2cccnc2)cc1SCC(F)(F)F [Ia-40]" endpoint_result=100
compound="Cc1cc(F)c(/N=C(/N2CCCC2)C(F)(F)F)cc1[S+]([O-])CC(F)(F)F (stereo not drawn) [Ib-96]" endpoint_result=90
compound="Cc1cc(Cl)c(SCC(F)(F)F)cc1/N=C(\\N)c1ccccn1 [Ia-49]" endpoint_result=100
compound="Cc1cc(F)c(/N=C(\\N)C2CC2(Cl)Cl)cc1SCC(F)(F)F (stereo not drawn) [Ia-75]" endpoint_result=100
compound="CN/C(=N\\c1cc([S+]([O-])CC(F)(F)F)c(Cl)cc1Cl)c1cccc(Cl)c1 (stereo not drawn) [Ib-140]" endpoint_result=100
compound="Cc1ccc(/N=C2\\SCC(=O)N2CC(F)(F)F)cc1SCC(F)(F)F [Ia-195]" endpoint_result=100
compound="Cc1cc(F)c(/N=C(\\N)c2ccccn2)cc1SCC(F)(F)F [Ia-63]" endpoint_result=90
compound="CN/C(=N/c1cc([S+]([O-])CC(F)(F)F)c(Br)cc1Br)C(F)(F)F (stereo not drawn) [Ib-24]" endpoint_result=100
compound="Cc1cc(C)c([S+]([O-])CC(F)(F)F)cc1/N=C(/c1ccc(Cl)nc1)N(C)C (stereo not drawn) [Ib-133]" endpoint_result=90
compound="N/C(=N\\c1cc(SCC(F)(F)F)c(Cl)cc1Cl)c1ccncn1 [Ia-130]" endpoint_result=100
compound="Cc1cc(C)c(SCC(F)(F)F)cc1/N=C(/c1cccnc1)N(C)C [Ia-167]" endpoint_result=90
compound="N/C(=N\\c1cc(SCC(F)(F)F)c(Cl)cc1Cl)C1CC1(Cl)Cl (stereo not drawn) [Ia-140]" endpoint_result=100
compound="FC(F)(F)CN/C(=N\\c1cc(SCC(F)(F)F)c(Cl)cc1Cl)C1CCCC1 [Ia-254]" endpoint_result=90
compound="CN/C(=N\\c1cc(SCC(F)(F)F)c(Cl)cc1Cl)c1ccc(C(F)(F)F)nc1 [Ia-264]" endpoint_result=90
compound="Cc1cc(C)c(SCC(F)(F)F)cc1/N=C1\\SCC(=O)N1CC(F)(F)F [Ia-272]" endpoint_result=100
compound="Cc1cc(C)c(SCC(F)(F)F)cc1/N=C(\\N)c1ccc(Cl)nc1 [Ia-81]" endpoint_result=100
compound="Cc1cc(F)c(/N=C2\\SCC(=O)N2CC(F)F)cc1SCC(F)(F)F [Ia-188]" endpoint_result=100

###

- Tested on: greenhouse red spider mite (Tetranychus urticae)
- Procedure Summary: Tetranychus urticae spray test, OP-resistant (TETRUR), bean leaf disks
- Assay type: in vivo
- Settings: Tetranychus urticae, foliar, 144 h, read-out: efficacy (spider mites killed)
Quantity: pest or weed control at 500 g/ha (%)

molecule="Cc1cc(F)c(/N=C(\\N)C2(F)CC2)cc1[S+]([O-])CC(F)(F)F (stereo not shown)" quantity="pest or weed control at 500 g/ha" endpoint_result=100
molecule=Cc1cc(F)c(/N=C2\NCCO2)cc1SCC(F)(F)F quantity="pest or weed control at 500 g/ha" endpoint_result=90
molecule=COc1cc(C)c(SCC(F)(F)F)cc1/N=C(/c1ccc(Cl)cc1)N1CCOCC1 quantity="pest or weed control at 500 g/ha" endpoint_result=90
molecule="Cc1cc(F)c(/N=C2\\CCCN2CC(F)(F)F)cc1[S+]([O-])CC(F)(F)F (stereo not shown)" quantity="pest or weed control at 500 g/ha" endpoint_result=100
molecule=Cc1cc(F)c(/N=C(\N)C2(F)CC2)cc1SCC(F)(F)F quantity="pest or weed control at 500 g/ha" endpoint_result=100
molecule=Cc1cc(F)c(/N=C2\CCCN2CC(F)(F)F)cc1SCC(F)(F)F quantity="pest or weed control at 500 g/ha" endpoint_result=100
molecule=Cc1cc(F)c(/N=C2/NCCS2)cc1SCC(F)(F)F quantity="pest or weed control at 500 g/ha" endpoint_result=100

###

# logP(HCOOH) annotations
- Procedure Summary: logP by HPLC on reversed-phase columns (C 18), EEC Directive 79/831 Annex V.A8
- Assay type: physicochemical
- Settings: pH 2.7
Marks after values point to notes of the source that are not given here.
Quantity: logP(HCOOH)

given_smiles=Cc1cc(F)c(N=C(NS(C)(=O)=O)C(F)(F)F)cc1SCC(F)(F)F quantity=logP(HCOOH) endpoint_result=3.05^[a]
given_smiles=Cc1cc(C)c(SCC(F)(F)F)cc1N=C(N(C)C)C(F)(F)F quantity=logP(HCOOH) endpoint_result="4.87^[a]; 4.87^[b]"
given_smiles=CCNC(=Nc1cc(SCC(F)(F)F)c(C)cc1F)C(F)(F)F quantity=logP(HCOOH) endpoint_result="4.12^[a]; 4.12^[b]"
given_smiles=CNC(=Nc1cc(SCC(F)(F)F)c(Cl)cc1Cl)C(F)(F)F quantity=logP(HCOOH) endpoint_result="4.2^[a]; 4.2^[b]"
